assay method text: self-splicing fitness, log relative to wild type (ln ratio); higher = more splicing; Tetrahymena group I intron in knt gene, E. coli kanamycin selection, DiMSum; sequences stand for … in CUCUCU…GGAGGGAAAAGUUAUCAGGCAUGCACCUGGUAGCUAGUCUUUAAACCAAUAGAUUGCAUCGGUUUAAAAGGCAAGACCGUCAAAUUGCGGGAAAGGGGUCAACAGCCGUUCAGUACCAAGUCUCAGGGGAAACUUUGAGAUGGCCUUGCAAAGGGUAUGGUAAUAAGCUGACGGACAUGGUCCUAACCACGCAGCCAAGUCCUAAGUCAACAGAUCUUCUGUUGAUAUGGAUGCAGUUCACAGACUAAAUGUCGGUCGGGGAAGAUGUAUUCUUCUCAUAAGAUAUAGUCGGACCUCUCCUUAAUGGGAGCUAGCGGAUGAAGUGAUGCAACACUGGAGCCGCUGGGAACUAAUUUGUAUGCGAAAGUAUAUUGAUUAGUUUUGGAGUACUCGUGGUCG;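 further: selection with 25 µg/mL kanamycin versus none on LB agar overnight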
assay conditions: 37 °C
Assign class by self-splicing fitness (ln): not lower than -2 means label 1; lower than -2 means label 0.

seq string: GUUCAGCAAUAUUACGUCAA
group: label 1
--
seq string: UGUUAGCAAUAUUACGCUUA
group: label 1
--
seq string: GAUCAGCAAUAUUACGAUCU
group: label 1
--
seq string: GUGCAGCAAUAUUACGGCCU
group: label 1
--
seq string: AUCGAGCAAUAUUACGCAUU
group: label 0
--
seq string: GACGAGCAAUAUUACGGCUG
group: label 1
--
seq string: GUAUAGCAAUAUUACGUAGA
group: label 0
--
seq string: UCUCAGCAAUAUUACGAUAC
group: label 0
--
seq string: AGGGAGCAAUAUUACGAGAU
group: label 0
--
seq string: GGAGAGCAAUAUUACGAAAC
group: label 1
--
seq string: UAGUAGCAAUAUUACGUAGC
group: label 1
--
seq string: ACAUAGCAAUAUUACGGUAA
group: label 1
--
seq string: GCCUAGCAAUAUUACGACGU
group: label 1
--
seq string: CGGAAGCAAUAUUACGUCAC
group: label 1
--
seq string: CUUCAGCAAUAUUACGAAAG
group: label 1
--
seq string: AUUAAGCAAUAUUACGGCGG
group: label 1
--
seq string: GAGUAGCAAUAUUACGAGGC
group: label 0
--
seq string: CAUCAGCAAUAUUACGGACG
group: label 1
--
seq string: CUCAAGCAAUAUUACGUGGG
group: label 0
--
seq string: AGUCAGCAAUAUUACGCUUC
group: label 1
--
seq string: ACGCAGCAAUAUUACGAAGG
group: label 1
--
seq string: CCGGAGCAAUAUUACGCCUU
group: label 0
--
seq string: CAAAAGCAAUAUUACGAAAG
group: label 1
--
seq string: UUGAAGCAAUAUUACGGUGU
group: label 1
--
seq string: GCAUAGCAAUAUUACGACUG
group: label 1
--
seq string: UACUAGCAAUAUUACGACGG
group: label 1
--
seq string: GGAAAGCAAUAUUACGAAAG
group: label 0
--
seq string: CGGCAGCAAUAUUACGAUUU
group: label 0
--
seq string: UCUCAGCAAUAUUACGCAAU
group: label 1
--
seq string: UCUGAGCAAUAUUACGUCGA
group: label 1
--
seq string: UCCAAGCAAUAUUACGCUUC
group: label 0
--
seq string: ACUCAGCAAUAUUACGCUCU
group: label 1
--
seq string: ACUGAGCAAUAUUACGAUUA
group: label 1
--
seq string: UGAAAGCAAUAUUACGAGGG
group: label 0
--
seq string: UCGGAGCAAUAUUACGGUUA
group: label 0
